tested on: N140; assay: qHTS profiling for inhibitors of Plasmodium falciparum proliferation (AID 504749); further: nearly all actives have a fitted effect of over 60% in size; settings: P. falciparum in erythrocytes, SYBR Green DNA, 72 h; series mostly up to 28.7 µM
Results filed as inconclusive are left out. Calls of active or inactive are those of the source. The call rests on the fitted dose curve; in most records, active means well fitted inhibition curve with a large enough effect; inconclusive means small, poorly fitted or top-dose-only effect; inactive means flat fitted curve, though single readings scatter.
VALUE_KIND: outcome

The examples below pair each entry with its known result.
# MOLECULAR_STRING, TEST_TARGET, RECORDED_VALUE
measured = [
    ("O=C(O)c1ccc(S(=O)(=O)N(Cl)Cl)cc1", "N140", "inactive"),
    ("COc1ccc(CN(CCN(C)C)c2ncccn2)cc1", "N140", "inactive"),
    ("CC(=O)Nc1ccc(CC(=O)O)cc1", "N140", "inactive"),
    ("CC(=O)O[C@H]1C[C@@H]2CC[C@@H]3[C@H](CC[C@@]4(C)[C@H]3C[C@H]([N+]3(C)CCCCC3)[C@@H]4OC(C)=O)[C@@]2(C)C[C@@H]1N1CCCCC1", "N140", "inactive"),
]

Alright, here's another molecule for you.
Incoming: Suppose we examine the molecule `NS(=O)(=O)Cc1noc2ccccc12` ; what outcome value has been reported?
Outgoing: inactive

These data points were gathered from PubChem BioAssay (NCATS).
